- Reported conditions: buffer; pH 7.4; 200.0 µM
Kindly supply the reported solubility kinetic values for the records listed here.

Query block: Which solubility kinetic value is on record for COc1ccc(C(=O)NN2CCOCC2)cc1 ?
Result block: > 35.4 µg/mL

Query block: Need solubility kinetic of Cl.c1ccc(C2CNCCc3ccccc32)cc1 (stereo not drawn) , thanks.
Result block: > 39 µg/mL

Query block: Quick one: solubility kinetic for O=C(c1cccc([N+](=O)[O-])c1)c1ccc2c(c1)OCCOCCOCCO2 ?
Result block: > 56 µg/mL
